# Test system: Escherichia coli UB1005
quantity_measured: MIC (µM)

• CC[C@H](C)[C@H](NC(=O)[C@H](CCCN=C(N)N)NC(=O)[C@H](Cc1c[nH]c2ccccc12)NC(=O)[C@H](CC(C)C)NC(=O)[C@@H](N)CCCN=C(N)N)C(=O)N[C@H](C(=O)N[C@H](C(=O)N[C@H](C(=O)N[C@@H](CCCN=C(N)N)C(=O)N[C@H](C(=O)N[C@@H](C)C(=O)N[C@@H](CCCN=C(N)N)C(N)=O)C(C)C)[C@@H](C)CC)C(C)C)C(C)C = 1.3
• CC[C@H](C)[C@H](N)C(=O)N[C@@H](Cc1cnc[nH]1)C(=O)N[C@@H](CCCCN)C(=O)N[C@@H](Cc1ccccc1)C(=O)N[C@@H](Cc1c[nH]c2ccccc12)C(=O)N[C@@H](CCCN=C(N)N)C(=O)NCC(=O)NCC(=O)N[C@@H](CCCN=C(N)N)C(=O)N[C@@H](Cc1c[nH]c2ccccc12)C(=O)N[C@@H](Cc1ccccc1)C(=O)N[C@@H](CCCCN)C(=O)N[C@@H](Cc1cnc[nH]1)C(=O)N[C@H](C(N)=O)[C@@H](C)CC = 8
• CSCC[C@H](NC(=O)[C@H](CCCCN)NC(=O)[C@H](Cc1ccccc1)NC(=O)[C@@H](N)Cc1c[nH]c2ccccc12)C(=O)N[C@@H](CCCN=C(N)N)C(=O)N[C@@H](Cc1c[nH]c2ccccc12)C(=O)N[C@@H](Cc1c[nH]c2ccccc12)C(=O)NCC(=O)N[C@@H](CCCN=C(N)N)C(=O)O = 5.8
• CC[C@H](C)[C@H](NC(=O)[C@H](CCCN=C(N)N)NC(=O)[C@H](CC(C)C)NC(=O)[C@H](CCCN=C(N)N)NC(=O)[C@@H](N)C(C)C)C(=O)N[C@@H](CCCN=C(N)N)C(=O)N[C@H](C(=O)N[C@@H](C)C(=O)N[C@H](C(=O)N[C@H](C(=O)N[C@@H](CCCN=C(N)N)C(=O)N[C@@H](CCCCN)C(N)=O)[C@@H](C)CC)C(C)C)C(C)C = 2.03
• NCCCC[C@H](NC(=O)[C@H](Cc1c[nH]c2ccccc12)NC(=O)[C@H](Cc1c[nH]c2ccccc12)NC(=O)[C@H](CCCN=C(N)N)NC(=O)[C@@H](N)CCCCN)C(=O)N[C@@H](Cc1c[nH]c2ccccc12)C(=O)N[C@@H](Cc1c[nH]c2ccccc12)C(=O)N[C@@H](CCCN=C(N)N)C(=O)N[C@@H](CCCN=C(N)N)C(=O)O = 2.8
